Test system: RAW264.7
Experiment: Cytotoxicity against mouse RAW264.7 cells at 10 uM after 24 hrs by MTS assay
Assay type: cell-based
Settings: raw264.7, 24 h
READOUT_LABEL: Activity

Before answering, review these 5 worked examples.
O=C1/C(=C/c2cccc(OC(F)(F)F)c2)Cc2c(O)cccc21 = Non-Toxic
O=C1/C(=C/c2cccc(C(F)(F)F)c2)Cc2cccc(O)c21 = Non-Toxic
O=C1/C(=C/c2ccc(C(F)(F)F)cc2)Cc2cc(O)ccc21 = Non-Toxic
O=C1/C(=C/c2cccc(F)c2)Cc2ccccc21 = Non-Toxic
O=C1/C(=C/c2ccc(Br)cc2)Cc2c(O)cccc21 = Non-Toxic

query: API: value(readout= Activity, system= RAW264.7, query= `O=C1/C(=C/c2cccc(C(F)(F)F)c2)Cc2c(O)cccc21` )
result: Non-Toxic

query: Likewise for `O=C1/C(=C/c2cccc(C(F)(F)F)c2)Cc2ccc(O)cc21` ?
result: Non-Toxic

query: Here is the next compound: `O=C1/C(=C/c2ccccc2Br)Cc2ccccc21`
result: Non-Toxic

query: Input `O=C1/C(=C/c2cccc(F)c2)Cc2ccc(O)cc21`
result: Non-Toxic

====

System: RAW264.7
Experiment: Inhibition of LPS-stimulated ROS production in mouse RAW264.7 cells preincubated for 1 hr followed by LPS stimulation after 24 hrs by CMH2DCFDA probe-based fluorescence assay
READOUT_LABEL: IC50

query: Entry `O=C1/C(=C/c2cccc(F)c2)Cc2ccccc21` : reported IC50 = ?
result: > 10 µM

query: Repeat for the following compound: `O=C1/C(=C/c2ccccc2F)Cc2cccc(O)c21`
result: 3.82 µM

query: Consider next the compound `O=C1/C(=C/c2ccccc2Br)Cc2ccccc21` in the same way.
result: > 10 µM

query: Param item: `O=C1/C(=C/c2cccc(OC(F)(F)F)c2)Cc2ccc(O)cc21`
result: > 10 µM

query: Same for `O=C1/C(=C/c2ccccc2C(F)(F)F)Cc2c(O)cccc21`
result: > 10 µM

query: Param item: `O=C1/C(=C/c2ccc(OC(F)(F)F)cc2)Cc2cc(O)ccc21`
result: > 10 µM

query: And what about the compound `O=C1/C(=C/c2cccc(Br)c2)Cc2c(O)cccc21` ?
result: > 10 µM

query: Query `O=C1/C(=C/c2cccc(Br)c2)Cc2cc(O)ccc21` next
result: 4.05 µM

query: Moving on to `O=C1/C(=C/c2ccccc2)Cc2ccccc21`
result: > 10 µM

query: Same question for `O=C1/C(=C/c2ccc(OC(F)(F)F)cc2)Cc2cccc(O)c21` please.
result: 3.15 µM

query: Then this compound: `O=C1/C(=C/c2cccc(F)c2)Cc2c(O)cccc21`
result: > 10 µM

query: Check `O=C1/C(=C/c2cccc(F)c2)Cc2cc(O)ccc21` too.
result: > 10 µM

query: Repeat for the following compound: `O=C1/C(=C/c2ccc(F)cc2)Cc2c(O)cccc21`
result: > 10 µM

query: Quick one: `O=C1/C(=C/c2ccccc2C(F)(F)F)Cc2cccc(O)c21`
result: 1.94 µM

query: // query: `O=C1/C(=C/c2cccc(Br)c2)Cc2ccccc21`
result: > 10 µM

query: And the next one, `O=C1/C(=C/c2cccc(OC(F)(F)F)c2)Cc2ccccc21` ?
result: > 10 µM

query: Again, but for `O=C1/C(=C/c2ccc(Br)cc2)Cc2ccc(O)cc21`
result: 4.27 µM

query: Now consider `O=C1/C(=C/c2ccc(C(F)(F)F)cc2)Cc2ccc(O)cc21` .
result: > 10 µM

query: Same for `O=C1/C(=C/c2ccccc2OC(F)(F)F)Cc2c(O)cccc21`
result: > 10 µM

query: Proceed to `O=C1/C(=C/c2cccc(OC(F)(F)F)c2)Cc2cc(O)ccc21`
result: 8.01 µM

query: Follow-up entry: `O=C1/C(=C/c2ccccc2F)Cc2cc(O)ccc21`
result: > 10 µM

query: Okay, and `O=C1/C(=C/c2cccc(C(F)(F)F)c2)Cc2ccc(O)cc21` ?
result: 4.55 µM

query: Okay, and `O=C1/C(=C/c2ccc(C(F)(F)F)cc2)Cc2cccc(O)c21` ?
result: 3.89 µM

query: Item: `O=C1/C(=C/c2ccccc2OC(F)(F)F)Cc2ccccc21`
result: 7.27 µM

Entry source: ChEMBL document CHEMBL4033626
